Entry source: paper PMC6458995

molecular target: WNK1 (Homo sapiens); construct: lines 1-140) and Reaction Biology; test: Dundee kinase panel; assay type: biochemical; conditions: read-out: residual activity
Consider the following compounds; for each one, report its remaining activity at 1 µM.
One number for each entry, in %.

Oc1ncnc2c1c(-c1ccccc1)cn2-c1ccccc1 109
O=C1Cc2c([nH]c3ccc(Br)cc23)-c2ccccc2N1 92
O=C1Nc2ccc(I)cc2/C1=C/c1cc(Br)c(O)c(Br)c1 94

Next up:
Item: `COCCOc1ccc(-c2cn(-c3ccccc3)c3nc[nH]c(=O)c23)cc1` | remaining activity at 1 µM: 106

----------
target: Aurora A (Homo sapiens); construct: lines 1-140) and Reaction Biology; assay: Dundee kinase panel; type: biochemical; settings: read-out: residual activity
Sequence (O14965 whole entry): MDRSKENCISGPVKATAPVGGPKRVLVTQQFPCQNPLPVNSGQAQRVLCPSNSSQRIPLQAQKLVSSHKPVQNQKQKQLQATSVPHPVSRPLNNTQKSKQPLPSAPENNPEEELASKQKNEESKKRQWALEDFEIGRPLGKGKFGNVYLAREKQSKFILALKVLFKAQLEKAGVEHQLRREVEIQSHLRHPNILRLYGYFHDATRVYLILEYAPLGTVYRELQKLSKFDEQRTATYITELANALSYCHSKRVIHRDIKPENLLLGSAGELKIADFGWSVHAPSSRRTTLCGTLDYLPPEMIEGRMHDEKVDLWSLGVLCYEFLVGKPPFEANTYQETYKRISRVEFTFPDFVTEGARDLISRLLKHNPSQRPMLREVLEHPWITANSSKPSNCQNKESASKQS
RECORDED ENDPOINT: remaining activity at 1 µM (%)
Numbers only, in %.

Sample answers from the record:
COMPOUND	remaining activity at 1 µM / %
O=C1Nc2ccc(I)cc2/C1=C/c1cc(Br)c(O)c(Br)c1 [GW5074]	79
Oc1ncnc2c1c(-c1ccccc1)cn2-c1ccccc1 [F1386-0303]	111

Give remaining activity at 1 µM for each listed item.
1. COCCOc1ccc(-c2cn(-c3ccccc3)c3nc[nH]c(=O)c23)cc1 [DMX-5804]
2. O=C1Cc2c([nH]c3ccc(Br)cc23)-c2ccccc2N1 [Kenpaullone]

72
96

----------
molecular target: PIM2 (Homo sapiens); construct: lines 1-140) and Reaction Biology; experiment: Dundee kinase panel; assay type: biochemical; settings: read-out: residual activity
Sequence (Q9P1W9 whole entry): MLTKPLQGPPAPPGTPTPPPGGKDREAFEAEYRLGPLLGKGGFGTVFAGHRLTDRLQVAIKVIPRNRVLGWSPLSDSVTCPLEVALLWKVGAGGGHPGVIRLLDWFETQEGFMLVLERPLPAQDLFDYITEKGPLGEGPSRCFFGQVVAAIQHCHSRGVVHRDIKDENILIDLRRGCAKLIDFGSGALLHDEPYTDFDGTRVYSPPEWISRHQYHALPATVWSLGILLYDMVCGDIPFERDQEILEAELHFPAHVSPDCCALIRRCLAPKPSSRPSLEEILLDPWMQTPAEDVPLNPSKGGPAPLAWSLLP
Consider the following compounds; for each one, report its remaining activity at 1 µM.
Give bare numbers, in %.

O=C1Cc2c([nH]c3ccc(Br)cc23)-c2ccccc2N1 67

Give remaining activity at 1 µM for each listed item.
1. Oc1ncnc2c1c(-c1ccccc1)cn2-c1ccccc1
2. COCCOc1ccc(-c2cn(-c3ccccc3)c3nc[nH]c(=O)c23)cc1

1. 84
2. 105

Item: `O=C1Nc2ccc(I)cc2/C1=C/c1cc(Br)c(O)c(Br)c1` | remaining activity at 1 µM: 10

----------
Consider the following compounds; for each one, report its remaining activity at 1 µM.
Target: IKKb (Homo sapiens, UniProt O14920)
Construct: lines 1-140) and Reaction Biology
Sequence (O14920 1-756): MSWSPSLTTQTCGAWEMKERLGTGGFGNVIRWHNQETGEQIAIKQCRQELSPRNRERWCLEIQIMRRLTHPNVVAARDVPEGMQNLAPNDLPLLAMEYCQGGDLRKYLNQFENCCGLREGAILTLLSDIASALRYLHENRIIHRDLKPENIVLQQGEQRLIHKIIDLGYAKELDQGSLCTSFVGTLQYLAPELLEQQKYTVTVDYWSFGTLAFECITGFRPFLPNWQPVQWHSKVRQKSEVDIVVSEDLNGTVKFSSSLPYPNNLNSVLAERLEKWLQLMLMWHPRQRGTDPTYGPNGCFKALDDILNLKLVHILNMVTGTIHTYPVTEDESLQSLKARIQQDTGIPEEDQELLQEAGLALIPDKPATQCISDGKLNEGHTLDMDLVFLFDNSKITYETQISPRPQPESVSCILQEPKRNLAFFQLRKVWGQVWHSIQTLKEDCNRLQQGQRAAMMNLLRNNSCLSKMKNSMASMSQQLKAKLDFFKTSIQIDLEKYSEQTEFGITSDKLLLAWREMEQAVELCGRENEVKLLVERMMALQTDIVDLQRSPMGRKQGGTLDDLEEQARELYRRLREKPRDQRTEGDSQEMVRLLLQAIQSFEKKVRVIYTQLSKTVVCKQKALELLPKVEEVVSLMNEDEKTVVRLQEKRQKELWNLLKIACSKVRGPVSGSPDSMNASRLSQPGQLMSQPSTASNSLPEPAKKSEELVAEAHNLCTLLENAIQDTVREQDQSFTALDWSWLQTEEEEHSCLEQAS
Experiment: Dundee kinase panel
Format: biochemical
Conditions: read-out: residual activity
Give bare numbers, in %.

Sample answers from the record:
COCCOc1ccc(-c2cn(-c3ccccc3)c3nc[nH]c(=O)c23)cc1 107
Oc1ncnc2c1c(-c1ccccc1)cn2-c1ccccc1 102
O=C1Nc2ccc(I)cc2/C1=C/c1cc(Br)c(O)c(Br)c1 73

Item: `O=C1Cc2c([nH]c3ccc(Br)cc23)-c2ccccc2N1` | remaining activity at 1 µM: 103

----------
target: IR (Homo sapiens, UniProt P06213); construct: lines 1-140) and Reaction Biology; assay: Dundee kinase panel; format: biochemical; settings: read-out: residual activity
Sequence (P06213 28-1382): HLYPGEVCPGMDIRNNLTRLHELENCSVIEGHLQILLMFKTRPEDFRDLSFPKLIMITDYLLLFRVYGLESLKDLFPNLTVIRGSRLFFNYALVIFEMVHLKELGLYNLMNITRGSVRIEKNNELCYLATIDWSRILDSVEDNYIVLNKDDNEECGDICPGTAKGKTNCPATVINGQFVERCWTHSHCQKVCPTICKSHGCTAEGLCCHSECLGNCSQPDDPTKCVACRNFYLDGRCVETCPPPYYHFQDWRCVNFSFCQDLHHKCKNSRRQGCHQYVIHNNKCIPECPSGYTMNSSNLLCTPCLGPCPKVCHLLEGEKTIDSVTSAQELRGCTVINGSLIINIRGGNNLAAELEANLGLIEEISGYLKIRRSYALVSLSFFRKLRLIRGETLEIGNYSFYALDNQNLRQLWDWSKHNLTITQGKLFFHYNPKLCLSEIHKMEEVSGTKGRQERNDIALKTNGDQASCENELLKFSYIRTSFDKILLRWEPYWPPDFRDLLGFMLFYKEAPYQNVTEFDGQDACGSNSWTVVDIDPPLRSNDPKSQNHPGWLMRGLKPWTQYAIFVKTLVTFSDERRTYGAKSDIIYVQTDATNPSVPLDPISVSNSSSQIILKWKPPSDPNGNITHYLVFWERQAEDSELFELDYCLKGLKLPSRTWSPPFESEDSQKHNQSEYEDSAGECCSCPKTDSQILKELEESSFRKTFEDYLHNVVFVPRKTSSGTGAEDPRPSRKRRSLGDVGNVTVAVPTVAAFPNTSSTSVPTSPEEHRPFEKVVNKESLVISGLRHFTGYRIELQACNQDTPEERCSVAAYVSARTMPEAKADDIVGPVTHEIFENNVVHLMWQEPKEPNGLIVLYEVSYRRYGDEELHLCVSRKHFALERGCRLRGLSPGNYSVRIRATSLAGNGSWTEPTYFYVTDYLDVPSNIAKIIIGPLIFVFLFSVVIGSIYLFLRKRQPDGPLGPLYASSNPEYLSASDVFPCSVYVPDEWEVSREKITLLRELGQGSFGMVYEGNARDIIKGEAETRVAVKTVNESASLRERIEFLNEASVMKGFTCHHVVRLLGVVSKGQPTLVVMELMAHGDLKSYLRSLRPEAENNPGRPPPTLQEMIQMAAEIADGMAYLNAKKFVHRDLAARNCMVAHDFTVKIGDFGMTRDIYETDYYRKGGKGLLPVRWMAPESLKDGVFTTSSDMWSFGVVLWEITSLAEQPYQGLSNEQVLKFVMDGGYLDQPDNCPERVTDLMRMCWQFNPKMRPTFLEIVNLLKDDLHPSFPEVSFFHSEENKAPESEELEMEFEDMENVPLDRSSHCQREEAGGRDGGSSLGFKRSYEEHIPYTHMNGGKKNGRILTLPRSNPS
Consider the following compounds; for each one, report its remaining activity at 1 µM.
Give bare numbers, in %.

Sample answers from the record:
O=C1Cc2c([nH]c3ccc(Br)cc23)-c2ccccc2N1 43
Oc1ncnc2c1c(-c1ccccc1)cn2-c1ccccc1 118
COCCOc1ccc(-c2cn(-c3ccccc3)c3nc[nH]c(=O)c23)cc1 115

Next up:
Item: `O=C1Nc2ccc(I)cc2/C1=C/c1cc(Br)c(O)c(Br)c1` | remaining activity at 1 µM: 26

----------
Consider the following compounds; for each one, report its remaining activity at 1 µM.
target: MLK3 (Homo sapiens); construct: lines 1-140) and Reaction Biology; experiment: Dundee kinase panel; assay type: biochemical; conditions: read-out: residual activity
Numbers only, in %.

Sample answers from the record:
COCCOc1ccc(-c2cn(-c3ccccc3)c3nc[nH]c(=O)c23)cc1 12
O=C1Nc2ccc(I)cc2/C1=C/c1cc(Br)c(O)c(Br)c1 17
O=C1Cc2c([nH]c3ccc(Br)cc23)-c2ccccc2N1 21

Next up:
Item: `Oc1ncnc2c1c(-c1ccccc1)cn2-c1ccccc1` | remaining activity at 1 µM: 30

----------
target: ERK2 (Homo sapiens); construct: lines 1-140) and Reaction Biology; assay: Dundee kinase panel; assay type: biochemical; conditions: read-out: residual activity
Sequence (P28482 whole entry): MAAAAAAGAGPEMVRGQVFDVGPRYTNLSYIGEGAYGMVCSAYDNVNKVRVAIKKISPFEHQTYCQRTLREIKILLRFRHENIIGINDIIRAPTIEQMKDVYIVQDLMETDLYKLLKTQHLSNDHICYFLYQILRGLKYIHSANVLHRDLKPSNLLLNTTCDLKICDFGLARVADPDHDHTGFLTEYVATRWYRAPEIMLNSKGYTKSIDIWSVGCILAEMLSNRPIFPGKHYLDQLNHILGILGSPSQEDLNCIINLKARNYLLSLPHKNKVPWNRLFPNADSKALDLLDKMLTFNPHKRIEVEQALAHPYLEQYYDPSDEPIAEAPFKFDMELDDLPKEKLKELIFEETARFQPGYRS
Consider the following compounds; for each one, report its remaining activity at 1 µM.
Give bare numbers, in %.

Sample answers from the record:
O=C1Nc2ccc(I)cc2/C1=C/c1cc(Br)c(O)c(Br)c1 106
COCCOc1ccc(-c2cn(-c3ccccc3)c3nc[nH]c(=O)c23)cc1 76
O=C1Cc2c([nH]c3ccc(Br)cc23)-c2ccccc2N1 124

Next up:
Item: `Oc1ncnc2c1c(-c1ccccc1)cn2-c1ccccc1` | remaining activity at 1 µM: 99

----------
Consider the following molecules; for each one, report its remaining activity at 1 µM.
target: PKCz (Homo sapiens); construct: lines 1-140) and Reaction Biology; test: Dundee kinase panel; type: biochemical; settings: read-out: residual activity
Sequence (Q05513 whole entry): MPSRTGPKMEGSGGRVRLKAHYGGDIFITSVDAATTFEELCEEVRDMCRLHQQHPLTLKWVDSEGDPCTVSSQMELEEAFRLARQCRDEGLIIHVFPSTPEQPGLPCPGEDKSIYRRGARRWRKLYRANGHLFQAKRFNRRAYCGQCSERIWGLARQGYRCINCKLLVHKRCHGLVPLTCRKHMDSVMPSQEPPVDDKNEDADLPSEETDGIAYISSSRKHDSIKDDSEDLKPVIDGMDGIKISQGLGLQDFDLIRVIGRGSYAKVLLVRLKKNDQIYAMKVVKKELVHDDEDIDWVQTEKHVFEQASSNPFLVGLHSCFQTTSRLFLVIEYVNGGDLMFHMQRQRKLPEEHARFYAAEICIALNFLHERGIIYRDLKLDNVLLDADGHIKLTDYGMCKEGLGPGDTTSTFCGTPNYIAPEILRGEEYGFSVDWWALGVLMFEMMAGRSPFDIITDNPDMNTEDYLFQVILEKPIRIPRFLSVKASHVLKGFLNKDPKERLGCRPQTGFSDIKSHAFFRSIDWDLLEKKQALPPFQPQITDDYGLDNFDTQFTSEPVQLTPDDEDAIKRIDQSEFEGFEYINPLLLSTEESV
Number plus unit, in that order.

Sample answers from the record:
MOLECULE	remaining activity at 1 µM
Oc1ncnc2c1c(-c1ccccc1)cn2-c1ccccc1 [F1386-0303]	108%
O=C1Cc2c([nH]c3ccc(Br)cc23)-c2ccccc2N1 [Kenpaullone]	105%
O=C1Nc2ccc(I)cc2/C1=C/c1cc(Br)c(O)c(Br)c1 [GW5074]	88%

Next up:
Item: COCCOc1ccc(-c2cn(-c3ccccc3)c3nc[nH]c(=O)c23)cc1 [DMX-5804] | remaining activity at 1 µM: 121%

----------
biological target: TTK (Homo sapiens, UniProt P33981); construct: lines 1-140) and Reaction Biology; assay: Dundee kinase panel; type: biochemical; conditions: read-out: residual activity
Sequence (P33981 whole entry): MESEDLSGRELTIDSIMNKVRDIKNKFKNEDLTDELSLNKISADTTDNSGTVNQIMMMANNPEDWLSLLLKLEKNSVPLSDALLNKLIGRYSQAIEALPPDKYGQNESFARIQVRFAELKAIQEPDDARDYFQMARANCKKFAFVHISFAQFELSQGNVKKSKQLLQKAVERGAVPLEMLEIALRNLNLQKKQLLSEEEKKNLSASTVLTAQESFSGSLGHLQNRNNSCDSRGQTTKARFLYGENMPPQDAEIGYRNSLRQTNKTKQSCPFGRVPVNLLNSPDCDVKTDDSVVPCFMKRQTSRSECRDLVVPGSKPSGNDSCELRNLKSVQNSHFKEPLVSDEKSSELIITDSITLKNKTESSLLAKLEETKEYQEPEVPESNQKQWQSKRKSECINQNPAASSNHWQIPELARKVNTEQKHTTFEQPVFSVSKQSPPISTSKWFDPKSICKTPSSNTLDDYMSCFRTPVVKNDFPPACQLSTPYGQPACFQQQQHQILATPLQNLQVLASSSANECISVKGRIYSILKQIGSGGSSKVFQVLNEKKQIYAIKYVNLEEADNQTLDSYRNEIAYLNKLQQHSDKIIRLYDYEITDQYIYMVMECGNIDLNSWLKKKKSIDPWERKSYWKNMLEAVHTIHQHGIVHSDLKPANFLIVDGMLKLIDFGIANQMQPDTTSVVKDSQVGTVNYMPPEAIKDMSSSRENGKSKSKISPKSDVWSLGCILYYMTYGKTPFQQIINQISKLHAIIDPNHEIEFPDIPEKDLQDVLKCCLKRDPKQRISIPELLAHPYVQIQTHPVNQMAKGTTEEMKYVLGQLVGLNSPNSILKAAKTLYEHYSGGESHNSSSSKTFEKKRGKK
Consider the following molecules; for each one, report its remaining activity at 1 µM.
Answers are plain numbers, in %.

Sample answers from the record:
MOLECULE	RECORDED ENDPOINT	REPORTED MEASUREMENT
COCCOc1ccc(-c2cn(-c3ccccc3)c3nc[nH]c(=O)c23)cc1 [DMX-5804]	remaining activity at 1 µM	105
Oc1ncnc2c1c(-c1ccccc1)cn2-c1ccccc1 [F1386-0303]	remaining activity at 1 µM	97
O=C1Cc2c([nH]c3ccc(Br)cc23)-c2ccccc2N1 [Kenpaullone]	remaining activity at 1 µM	97

Next up:
Item: O=C1Nc2ccc(I)cc2/C1=C/c1cc(Br)c(O)c(Br)c1 [GW5074] | remaining activity at 1 µM: 88

----------
Consider the following compounds; for each one, report its IC50.
Target: recombinant human MAP4K4 (Homo sapiens, UniProt O95819)
Construct: Human MAP4K4 kinase domain (aa 1-328); purchased Invitrogen PV3687
Sequence (O95819 1-328): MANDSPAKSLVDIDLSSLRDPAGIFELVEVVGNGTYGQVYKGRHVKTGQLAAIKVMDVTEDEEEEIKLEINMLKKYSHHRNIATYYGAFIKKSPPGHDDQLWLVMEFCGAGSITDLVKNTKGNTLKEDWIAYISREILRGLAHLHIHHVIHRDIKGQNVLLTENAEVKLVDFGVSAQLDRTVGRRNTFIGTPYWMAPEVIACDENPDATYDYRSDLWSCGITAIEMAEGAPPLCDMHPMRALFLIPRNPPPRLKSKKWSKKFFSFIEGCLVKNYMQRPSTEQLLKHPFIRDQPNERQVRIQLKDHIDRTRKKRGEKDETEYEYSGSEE
Test: In vitro MAP4K4 kinase activity assay (HTRF Transcreener ADP)
Assay type: biochemical
Conditions: MAP4K4; HTRF Transcreener ADP assay; read-out: pIC50 (converted)
Description: MAP4K4 kinase activity was monitored using the CisBio HTRF Transcreener ADP assay, a competitive immunoassay with a reproducible Z’ > 0.6. In the detection step, endogenous ADP and d2-labeled ADP compete for binding an anti-ADP monoclonal antibody labeled with Eu^3+ cryptate. […] Assays were run in Greiner low volume plates with a final reaction volume of 10 μl. Percent inhibition was calculated from 100% activity of MAP4K4 (DMSO only) and 0% activity (no enzyme added). […]

Sample answers from the record:
COCCOc1ccc(-c2cn(-c3ccccc3)c3nc[nH]c(=O)c23)cc1 2.82 nM
O=c1[nH]cnc2[nH]cc(-c3ccccc3)c12 794 nM
Oc1ncnc2c1c(-c1ccccc1)cn2-c1ccccc1 34.7 nM

Next up:
Item: `O=c1[nH]cnc2c1ccn2-c1ccccc1` | IC50: 7940 nM
